- Tested On: panel of 442 kinases (Homo sapiens, UniProt Q9UK32)
- Construct: purchased KINOMEscan
- Sequence (Q9UK32 whole entry): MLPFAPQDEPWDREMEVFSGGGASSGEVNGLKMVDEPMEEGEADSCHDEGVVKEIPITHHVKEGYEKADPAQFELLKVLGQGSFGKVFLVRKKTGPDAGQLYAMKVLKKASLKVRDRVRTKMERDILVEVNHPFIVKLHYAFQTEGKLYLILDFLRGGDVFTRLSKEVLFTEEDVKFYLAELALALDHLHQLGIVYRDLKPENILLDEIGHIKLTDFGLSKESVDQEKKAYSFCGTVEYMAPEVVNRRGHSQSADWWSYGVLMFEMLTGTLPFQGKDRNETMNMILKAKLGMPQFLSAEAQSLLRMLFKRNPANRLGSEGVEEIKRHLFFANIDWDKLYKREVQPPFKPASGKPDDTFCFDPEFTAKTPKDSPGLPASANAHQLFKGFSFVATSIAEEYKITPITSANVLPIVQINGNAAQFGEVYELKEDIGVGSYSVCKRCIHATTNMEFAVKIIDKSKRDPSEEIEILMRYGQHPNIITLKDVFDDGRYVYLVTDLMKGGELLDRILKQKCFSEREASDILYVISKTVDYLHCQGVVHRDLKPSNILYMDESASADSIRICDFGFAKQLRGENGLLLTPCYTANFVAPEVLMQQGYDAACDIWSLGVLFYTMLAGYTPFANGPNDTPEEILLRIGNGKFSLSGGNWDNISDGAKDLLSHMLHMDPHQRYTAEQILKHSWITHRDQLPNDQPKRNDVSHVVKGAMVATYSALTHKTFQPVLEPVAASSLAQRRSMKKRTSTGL
- Type: binding
- Condition Summary: kinase RSK4(Kin.Dom.2-C-terminal); compound concentration 10 µM
Result Type: % Ctrl, RSK4(Kin.Dom.2-C-terminal) (% Ctrl)
Just the number please, in % Ctrl, no unit attached.

What value of % Ctrl, RSK4(Kin.Dom.2-C-terminal) has been recorded for this entry: COc1cc(C(=O)N2CCC(N3CCN(C)CC3)CC2)ccc1Nc1ncc2c(n1)N1CCc3cccc(c31)C(=O)N2C
5.2

What value of % Ctrl, RSK4(Kin.Dom.2-C-terminal) has been recorded for this entry: COc1cc(C(=O)N2CCC(N3CCN(C)CC3)CC2)ccc1Nc1ncc2c(n1)N(C)c1ccccc1C(=O)N2C
2.2

What value of % Ctrl, RSK4(Kin.Dom.2-C-terminal) has been recorded for this entry: COc1cc(C(=O)N2CCC(N3CCN(C)CC3)CC2)ccc1Nc1ncc2c(n1)N(C1CCCC1)c1ccccc1C(=O)N2C
93

What value of % Ctrl, RSK4(Kin.Dom.2-C-terminal) has been recorded for this entry: CCOc1cc(C(=O)N2CCC(N3CCN(C)CC3)CC2)ccc1Nc1ncc2c(n1)N(C1CCCC1)c1ccccc1C(=O)N2C
98
